Source listed as PubChem BioAssay (NCI).

Tested on: COLO 205 colon
protocol description: NCI-60 one-dose screen, 48 h
condition summary: 10 µM unless noted
This is part of a sample that, as a whole, favours compounds with a hit. Of some 83,000 tested, about 20% had one in any assay. Active and inactive are the calls of the source. Rule for the calls: active = growth percent below 10; inactive = the rest.
Outcome codes: active, inactive

{"columns": ["molecule", "group label"],
 "data": [
  ["COc1cc(-c2ccc3ncnc(NC(C)c4ccccc4)c3c2)cnc1OC (stereo not given)", "inactive"],
  ["COc1ccc(N/N=C/c2c(-c3ccc(S(C)(=O)=O)cc3)nc3ccccn23)cc1", "inactive"],
  ["Cc1cc2nc3c4cc(Cl)ccc4n(CC(=S)NCCN(C)C)c3nc2cc1C", "active"],
  ["CNC(=O)c1cc(-c2ccc(NC(=O)Nc3ccc(N4CCOCC4)c(C(F)(F)F)c3)cc2)nc2cccnc12", "inactive"],
  ["COc1ccc(-c2nn3c(-c4ccccc4F)nnc3s2)cc1", "inactive"],
  ["Fc1ccc(-c2nc(C(Cl)Cl)nc3cc(-c4ccccc4)nn23)cc1", "active"],
  ["CC1=C(C)C(=O)C(Nc2cccc(C(F)(F)F)c2)=C(Cl)C1=O", "inactive"],
  ["Cc1c(Nc2nnc(SCC(=O)Nc3sc4c(c3C#N)CCCC4)s2)c(=O)n(-c2ccccc2)n1C", "inactive"],
  ["O=C(CN1CCOCC1)NNc1ncnc2ccccc12", "inactive"],
  ["Cc1c(NC(=O)CSc2nc3sc4c(c3c(=O)n2-c2ccc(Cl)cc2)CCCC4)c(=O)n(-c2ccccc2)n1C", "inactive"],
  ["Cc1cc2nc3c4cc(Cl)ccc4n(CC(=O)NCCN(C)C)c3nc2cc1C", "inactive"],
  ["CNC(=O)c1cc(-c2ccc(NC(=O)Nc3ccc(N4CCN(C)CC4)c(C(F)(F)F)c3)cc2)nc2cccnc12", "active"],
  ["O=C1NC(=C(Cl)Cl)/C(=N/S(=O)(=O)N2CCCCC2CC2(C(F)(F)F)N=N2)N1 (stereo not given)", "active"],
  ["COc1cc(OC)c(S(=O)(=O)NNC(=O)c2ccncc2)cc1C(=O)/C=C/c1ccc(C)cc1", "inactive"],
  ["N#Cc1nc(-c2ccccc2)oc1S(=O)(=O)N1CCCCC1", "inactive"],
  ["COc1cc2cc(Oc3ccc(NC(=O)c4cccc(C(F)(F)F)c4)cc3)c(C)nc2cc1OCCN1CCCCC1", "active"],
  ["Cc1cc(=O)oc2cc(OCCCOc3ccc(/C=C/C(=O)Nc4ccc(Cl)cc4)cc3)ccc12", "inactive"],
  ["CSCCC(C(=O)O)N1C(=O)/C(=C/c2ccc(O)c(O)c2)SC1=S (stereo not given)", "inactive"],
  ["CCOC(=O)c1c(Nc2ccccc2)nn2c(N)c(C#N)c(-c3ccc(F)cc3)nc12", "inactive"],
  ["Clc1ccc2c(NCCCn3ccnc3)c3oc4ccccc4c3nc2c1", "inactive"]
]}

----------
Each entry below lists one item and its recorded growth value.
Test system: SK-MEL-5 melanoma
protocol description: NCI-60 one-dose screen, 48 h (100 = growth as untreated, 0 = no growth, -100 = all killed)
condition summary: 10 µM unless noted
This is part of a sample that, as a whole, favours compounds with a hit. Of some 83,000 tested, about 20% had one in any assay. Activity calls are given as the source filed them. The calls were made as follows: active = growth percent below 10; inactive = the rest.

{"columns": ["compound", "assayed target", "growth"],
 "data": [
  ["OC1CCN(CCCOc2c3ccc(Cl)cc3nc3c2oc2ccc(Cl)cc23)CC1", "SK-MEL-5 melanoma", "-7.79% (active)"],
  ["Cc1cc2nc3c4cc(Cl)ccc4n(CC(=O)NCCN(C)C)c3nc2cc1C", "SK-MEL-5 melanoma", "89.8% (inactive)"],
  ["O=C(CCN1C(=O)/C(=C/c2ccccc2)SC1=S)N1CCOCC1", "SK-MEL-5 melanoma", "99.5% (inactive)"],
  ["C/C(=C(/c1ccc(Cl)cc1)c1ccc(OCCN)cc1)c1ccc(C)cc1", "SK-MEL-5 melanoma", "106% (inactive)"],
  ["COc1cc(OC)c(C2SCC(=O)N2Nc2ncnc3ccccc23)cc1OC (stereo unspecified)", "SK-MEL-5 melanoma", "102% (inactive)"],
  ["CN1CCc2c(sc3ncnc(N/N=C/c4ccc(Cl)c(Cl)c4)c23)C1", "SK-MEL-5 melanoma", "86.6% (inactive)"],
  ["CCOC(=O)c1c(Nc2ccccc2)nn2c(N)c(C#N)c(-c3ccc(Cl)cc3)nc12", "SK-MEL-5 melanoma", "94.8% (inactive)"],
  ["Clc1ccc(Cc2nnc3sc(-c4cccnc4)nn23)cc1", "SK-MEL-5 melanoma", "96.4% (inactive)"],
  ["COc1ccc(/C=C2\\SC(=Nc3cc(C)on3)NC2=O)cc1", "SK-MEL-5 melanoma", "99.3% (inactive)"],
  ["O=[N+]([O-])c1ccc(O)c2ncccc12", "SK-MEL-5 melanoma", "15.3% (inactive)"],
  ["C=CCSc1ccc2c(c1)C(N1CCNCC1)=Nc1ccccc1O2", "SK-MEL-5 melanoma", "85.5% [8.25 µM] (inactive)"]
]}
